molecular target: Neurotensin receptor type 2 (Rattus norvegicus) (UniProt Q63384); experiment: Antagonist activity at rat neurotensin receptor type 2 expressed in CHOK1 cells assessed as inhibition of SR142948a-induced calcium release at 10 uM by FLIPR assay; assay type: functional, cell-based; settings: CHO-K1
The source made the active and inactive calls. The calls are words filed in the database; no cut-off is given here.
Result type: inhibition

COc1ccc(C(=O)N/C(=C\c2ccccc2)C(=O)N[C@H](C(=O)O)C(C)C)cc1: inactive
COc1ccc(C(=O)N/C(=C\c2cccc([N+](=O)[O-])c2)C(=O)N[C@@H](CC(C)C)C(=O)O)cc1: inactive
O=C(O)c1cc(Nc2nc(-c3ccccc3)c3cc(Cl)ccc3n2)ccc1O: 20%
Cc1c(NC(=S)NC(=O)C(c2ccccc2)c2ccccc2)cccc1C(=O)O: inactive
O=C1NC(=O)N(c2ccc(C(=O)O)cc2)C(=O)/C1=C/c1c(OCc2ccccc2)ccc2ccccc12: inactive
O=C(O)c1ccc(NC(=S)NC(=O)C(c2ccccc2)c2ccccc2)cc1Cl: inactive
Cc1ccc(C(=O)O)cc1NC(=S)NC(=O)C(c1ccccc1)c1ccccc1: inactive
COc1ccc(C(=O)O)cc1NC(=S)NC(=O)C(c1ccccc1)c1ccccc1: inactive

Name the reported inhibition value associated with the compound COc1ccccc1C(=O)N/C(=C\c1ccc2c(c1)OCO2)C(=O)N[C@H](C(=O)O)C(C)C (stereo in doubt)
inactive

Moving on to the next compound: "O=C(O)c1cccc(NC(=S)NC(=O)C(c2ccccc2)c2ccccc2)c1"
inactive

Moving on to the next compound: "CC(C)[C@H](NC(=O)/C(=C/c1ccccc1)NC(=O)c1ccccc1)C(=O)O"
inactive

----------
target: UniProt P20789; test: Antagonist activity at rat neurotensin receptor type 1 expressed in CHOK1 cells assessed as inhibition of calcium release at 10 uM by FLIPR assay; assay type: functional, cell-based; conditions: CHO-K1
Sequence (P20789 whole entry): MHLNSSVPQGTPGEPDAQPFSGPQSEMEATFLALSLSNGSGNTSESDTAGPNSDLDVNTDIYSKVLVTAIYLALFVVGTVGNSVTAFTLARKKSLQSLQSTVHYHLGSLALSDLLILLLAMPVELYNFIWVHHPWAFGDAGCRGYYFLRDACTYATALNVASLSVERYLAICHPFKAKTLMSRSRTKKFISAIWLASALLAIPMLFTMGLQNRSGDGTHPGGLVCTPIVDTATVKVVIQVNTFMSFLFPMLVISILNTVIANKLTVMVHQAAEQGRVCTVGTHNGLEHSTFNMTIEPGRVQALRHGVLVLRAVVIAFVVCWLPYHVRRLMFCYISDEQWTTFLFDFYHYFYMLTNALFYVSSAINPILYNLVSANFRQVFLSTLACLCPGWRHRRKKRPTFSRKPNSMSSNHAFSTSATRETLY
Calls of active or inactive are those of the source. No cut-off for these calls is given here.
Result type: inhibition

Example entries begin here.
Cc1ccc(C(=O)O)cc1NC(=S)NC(=O)C(c1ccccc1)c1ccccc1: inactive
O=C1NC(=O)N(c2ccc(C(=O)O)cc2)C(=O)/C1=C/c1c(OCc2ccccc2)ccc2ccccc12: inactive
O=C(O)c1ccc(NC(=S)NC(=O)C(c2ccccc2)c2ccccc2)cc1Cl: inactive
COc1ccc(C(=O)O)cc1NC(=S)NC(=O)C(c1ccccc1)c1ccccc1: inactive
Cc1c(NC(=S)NC(=O)C(c2ccccc2)c2ccccc2)cccc1C(=O)O: inactive

Name the reported inhibition value associated with the compound "O=C(O)c1cc(Nc2nc(-c3ccccc3)c3cc(Cl)ccc3n2)ccc1O"
inactive

Moving on to the next compound: "COc1ccc(C(=O)N/C(=C\c2cccc([N+](=O)[O-])c2)C(=O)N[C@@H](CC(C)C)C(=O)O)cc1"
inactive

Moving on to the next compound: "O=C(O)c1cccc(NC(=S)NC(=O)C(c2ccccc2)c2ccccc2)c1"
inactive

Moving on to the next compound: "CC(C)[C@H](NC(=O)/C(=C/c1ccccc1)NC(=O)c1ccccc1)C(=O)O"
inactive

Moving on to the next compound: "COc1ccc(C(=O)N/C(=C\c2ccccc2)C(=O)N[C@H](C(=O)O)C(C)C)cc1"
inactive

Moving on to the next compound: COc1ccccc1C(=O)N/C(=C\c1ccc2c(c1)OCO2)C(=O)N[C@H](C(=O)O)C(C)C (stereo in doubt)
inactive

----------
Listed here: molecules with reported Ki for Neurotensin receptor type 2 (Rattus norvegicus).
Form entry: value (nM) — number only.

Example entries begin here.
COc1cccc(OC)c1-c1nc(C(=O)NC2(C(=O)O)CCCCC2)nc2ccc(Cl)cc12: 959
COc1cccc(OC)c1-c1cc(C(=O)NC2(C(=O)O)C3CC4CC(C3)CC2C4)nn1-c1ccc(C(=O)N(C)CCCN(C)C)cc1C(C)C (stereo not drawn): 7

Moving on to the next molecule.
Requested read-out Ki, target or system Neurotensin receptor type 2 (Rattus norvegicus), entry "COc1cccc(OC)c1-c1nc(C(=O)N[C@H](C(=O)O)C2CCCCC2)nc2ccc(Cl)cc12"
474

----------
target: Neurotensin receptor type 2 (Rattus norvegicus); assay: Agonist activity at rat neurotensin receptor type 2 expressed in CHOK1 cells assessed as increase in calcium release by FLIPR assay
Sequence (Q63384 whole entry): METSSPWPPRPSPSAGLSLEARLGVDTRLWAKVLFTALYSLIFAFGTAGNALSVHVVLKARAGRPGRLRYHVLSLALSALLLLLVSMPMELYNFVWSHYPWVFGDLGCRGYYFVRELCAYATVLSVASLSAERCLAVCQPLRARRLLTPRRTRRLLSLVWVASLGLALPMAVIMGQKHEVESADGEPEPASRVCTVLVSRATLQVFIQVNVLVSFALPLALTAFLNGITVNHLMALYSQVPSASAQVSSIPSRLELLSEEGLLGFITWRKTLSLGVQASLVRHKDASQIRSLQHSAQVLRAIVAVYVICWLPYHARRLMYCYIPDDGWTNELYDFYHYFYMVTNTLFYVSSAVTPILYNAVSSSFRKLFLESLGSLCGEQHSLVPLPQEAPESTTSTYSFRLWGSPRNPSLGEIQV
Result type: EC50 (nM)
Form entry: value (nM) — number only.

COc1cccc(OC)c1-c1cc(C(=O)NC2(C(=O)O)C3CC4CC(C3)CC2C4)nn1-c1ccc(C(=O)N(C)CCCN(C)C)cc1C(C)C (configuration not stated): 18

Moving on to the next molecule.
Name the reported EC50 value associated with the molecule "COc1cccc(OC)c1-c1nc(C(=O)NC2(C(=O)O)CCCCC2)nc2ccc(Cl)cc12"
145

----------
target: UniProtKB Q63384; assay: Antagonist activity at rat neurotensin receptor type 2 expressed in CHOK1 cells assessed as inhibition of SR142948a-induced calcium release by FLIPR assay; format: functional, cell-based, CHO-K1
Result type: IC50 (nM)
Form entry: value (nM) — number only.

Name the reported IC50 value associated with the compound "COc1cccc(OC)c1-c1nc(C(=O)N[C@H](C(=O)O)C2CCCCC2)nc2ccc(Cl)cc12"
1070
